Just for reference, PubChem BioAssay AID1963846 is where these values come from.

system: 454973-116-R2-J3-PDC complex spheroid viability; assay: Anticancer human tumor 454973-116-R2-J3-PDC patient-derived pancreatic carcinoma cell line growth inhibition [POLQ]; conditions: second compound 10 µM; first compound 3.16 µM; hits give low values
Reported metric: viability, T/C (%)
Please state the figure in %; there is no need to write the unit.

Below, 5 compounds whose answers are already recorded.
{"columns": ["Compound", "Reported metric", "Reading"],
 "data": [
  ["Nc1ccn(C2OC(CO)C(O)C2(F)F)c(=O)n1 (stereo unspecified) + COC1C(OC(N)=O)C(O)C(Oc2ccc3c(O)c(NC(=O)c4ccc(O)c(CC=C(C)C)c4)c(=O)oc3c2C)OC1(C)C", "viability, T/C", 11.9],
  ["O=C(Nc1ccc(O)c(NS(=O)(=O)c2ccc(F)cc2)c1)c1ccc(-c2ccccc2)cc1 + Nc1ccc(C#CCN(C(=O)Cc2ncc(C(F)(F)F)cc2C(F)(F)F)c2ccc(F)cc2)nn1", "viability, T/C", 109],
  ["CCCS(=O)(=O)Nc1ccc(F)c(C(=O)c2c[nH]c3ncc(-c4ccc(Cl)cc4)cc23)c1F + COC1C(OC(N)=O)C(O)C(Oc2ccc3c(O)c(NC(=O)c4ccc(O)c(CC=C(C)C)c4)c(=O)oc3c2C)OC1(C)C", "viability, T/C", 109],
  ["COc1cccc2c1C(=O)c1c(O)c3c(c(O)c1C2=O)CC(O)(C(=O)CO)CC3OC1CC(N)C(O)C(C)O1 (stereo unspecified) + Nc1ccc(C#CCN(C(=O)Cc2ncc(C(F)(F)F)cc2C(F)(F)F)c2ccc(F)cc2)nn1", "viability, T/C", 0.54],
  ["O=C(Nc1ccc(O)c(NS(=O)(=O)c2ccc(F)cc2)c1)c1ccc(-c2ccccc2)cc1 + COC1C(OC(N)=O)C(O)C(Oc2ccc3c(O)c(NC(=O)c4ccc(O)c(CC=C(C)C)c4)c(=O)oc3c2C)OC1(C)C", "viability, T/C", 102]
]}

Query: Quick one: viability, T/C of O=c1[nH]cc(F)c(=O)[nH]1 + COC1C(OC(N)=O)C(O)C(Oc2ccc3c(O)c(NC(=O)c4ccc(O)c(CC=C(C)C)c4)c(=O)oc3c2C)OC1(C)C ?
Result: 50.6

Query: Also need O=C(Nc1ccc(O)c(NS(=O)(=O)c2ccc(F)cc2)c1)c1ccc(-c2ccccc2)cc1 + Cc1cccc(N(C)C(=O)C2C(O)CCN2c2nc(C)cc(C(F)(F)F)c2C#N)c1 , thanks.
Result: 95.8

Query: Also need C=CC(=O)N1CCN(c2nc(=O)n(-c3c(C)ccnc3C(C)C)c3nc(-c4c(O)cccc4F)c(F)cc23)C(C)C1 (stereo unspecified) + COC1C(OC(N)=O)C(O)C(Oc2ccc3c(O)c(NC(=O)c4ccc(O)c(CC=C(C)C)c4)c(=O)oc3c2C)OC1(C)C , thanks.
Result: 110

Query: Also need C#Cc1c(F)ccc2cc(O)cc(-c3ncc4c(N5CC6CCC(C5)N6)nc(OCC56CCCN5CC(F)C6)nc4c3F)c12 (stereo unspecified) + Nc1ccc(C#CCN(C(=O)Cc2ncc(C(F)(F)F)cc2C(F)(F)F)c2ccc(F)cc2)nn1 , thanks.
Result: 23.4

Query: Also need O=c1[nH]cc(F)c(=O)[nH]1 + Cc1cccc(N(C)C(=O)C2C(O)CCN2c2nc(C)cc(C(F)(F)F)c2C#N)c1 , thanks.
Result: 39.6

Query: Also need COc1cc2cc(C(=O)CCC(=O)O)sc2cc1OC + Cc1cccc(N(C)C(=O)C2C(O)CCN2c2nc(C)cc(C(F)(F)F)c2C#N)c1 , thanks.
Result: 102

---

Some compounds, each annotated with its measured viability, T/C.
test system: 454973-116-R2-J3-PDC complex spheroid viability; test: Anticancer human tumor 454973-116-R2-J3-PDC cell line growth inhibition [POLQ]; conditions: second compound 0.316 µM; first compound 0.1 µM; hits give low values;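 note: spheroids exposed to drugs for seven days before measurement; percent viability relative to DMSO vehicle control wells taken as 100%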
Please state the figure in %; there is no need to write the unit.

Below, 8 compounds whose answers are already recorded.
{"columns": ["Compound", "Readout unit", "viability, T/C"],
 "data": [
  ["CC(C)n1c(=O)n(C)c2cnc3cc(F)c(-c4ccc(OCCCN5CCCCC5)nc4)cc3c21 + COC1C(OC(N)=O)C(O)C(Oc2ccc3c(O)c(NC(=O)c4ccc(O)c(CC=C(C)C)c4)c(=O)oc3c2C)OC1(C)C", "%", 113],
  ["CCCS(=O)(=O)Nc1ccc(F)c(C(=O)c2c[nH]c3ncc(-c4ccc(Cl)cc4)cc23)c1F + Nc1ccc(C#CCN(C(=O)Cc2ncc(C(F)(F)F)cc2C(F)(F)F)c2ccc(F)cc2)nn1", "%", 109],
  ["CC1COCCN1c1cc(C2(O)CC3CCC(C2)O3)c2cnn(-c3ccn[nH]3)c2n1 (stereo unspecified) + Cc1cccc(N(C)C(=O)C2C(O)CCN2c2nc(C)cc(C(F)(F)F)c2C#N)c1", "%", 73.1],
  ["COc1cccc2c1C(=O)c1c(O)c3c(c(O)c1C2=O)CC(O)(C(=O)CO)CC3OC1CC(N)C(O)C(C)O1 (stereo unspecified) + COC1C(OC(N)=O)C(O)C(Oc2ccc3c(O)c(NC(=O)c4ccc(O)c(CC=C(C)C)c4)c(=O)oc3c2C)OC1(C)C", "%", 29.4],
  ["CC[C@@]1(O)C(=O)OCc2c1cc1n(c2=O)Cc2cc3c(CN(C)C)c(O)ccc3nc2-1 + Cc1cccc(N(C)C(=O)C2C(O)CCN2c2nc(C)cc(C(F)(F)F)c2C#N)c1", "%", 16.5],
  ["C=CC(=O)N1CCN(c2nc(=O)n(-c3c(C)ccnc3C(C)C)c3nc(-c4c(O)cccc4F)c(F)cc23)C(C)C1 (stereo unspecified) + Nc1ccc(C#CCN(C(=O)Cc2ncc(C(F)(F)F)cc2C(F)(F)F)c2ccc(F)cc2)nn1", "%", 106],
  ["CC1COCCN1c1cc(C2(O)CC3CCC(C2)O3)c2cnn(-c3ccn[nH]3)c2n1 (stereo unspecified) + Nc1ccc(C#CCN(C(=O)Cc2ncc(C(F)(F)F)cc2C(F)(F)F)c2ccc(F)cc2)nn1", "%", 44.8],
  ["COc1cccc(OCCCN)c1-c1cc(Nc2cnc(C#N)cn2)n[nH]1 + Nc1ccc(C#CCN(C(=O)Cc2ncc(C(F)(F)F)cc2C(F)(F)F)c2ccc(F)cc2)nn1", "%", 7.21]
]}

Query: Quick one: viability, T/C of Nc1ccn(C2OC(CO)C(O)C2(F)F)c(=O)n1 (stereo unspecified) + COC1C(OC(N)=O)C(O)C(Oc2ccc3c(O)c(NC(=O)c4ccc(O)c(CC=C(C)C)c4)c(=O)oc3c2C)OC1(C)C ?
Result: 9.75

Query: Also need COc1cc2cc(C(=O)CCC(=O)O)sc2cc1OC + Nc1ccc(C#CCN(C(=O)Cc2ncc(C(F)(F)F)cc2C(F)(F)F)c2ccc(F)cc2)nn1 , thanks.
Result: 101

Query: Also need CC[C@@]1(O)C(=O)OCc2c1cc1n(c2=O)Cc2cc3c(CN(C)C)c(O)ccc3nc2-1 + Nc1ccc(C#CCN(C(=O)Cc2ncc(C(F)(F)F)cc2C(F)(F)F)c2ccc(F)cc2)nn1 , thanks.
Result: 12.3

Query: Also need CCc1cc2c(N3CCc4c(cc(Cn5ccnc5)cc4-c4cn(C)nc4C(F)(F)F)C3=O)ccnc2c(OC)n1 + Cc1cccc(N(C)C(=O)C2C(O)CCN2c2nc(C)cc(C(F)(F)F)c2C#N)c1 , thanks.
Result: 89

Query: Also need COc1cccc(OCCCN)c1-c1cc(Nc2cnc(C#N)cn2)n[nH]1 + COC1C(OC(N)=O)C(O)C(Oc2ccc3c(O)c(NC(=O)c4ccc(O)c(CC=C(C)C)c4)c(=O)oc3c2C)OC1(C)C , thanks.
Result: 5.72

Query: Also need C#Cc1c(F)ccc2cc(O)cc(-c3ncc4c(N5CC6CCC(C5)N6)nc(OCC56CCCN5CC(F)C6)nc4c3F)c12 (stereo unspecified) + Cc1cccc(N(C)C(=O)C2C(O)CCN2c2nc(C)cc(C(F)(F)F)c2C#N)c1 , thanks.
Result: 44.4

Query: Also need O=C(Nc1ccc(O)c(NS(=O)(=O)c2ccc(F)cc2)c1)c1ccc(-c2ccccc2)cc1 + Nc1ccc(C#CCN(C(=O)Cc2ncc(C(F)(F)F)cc2C(F)(F)F)c2ccc(F)cc2)nn1 , thanks.
Result: 104

Query: Also need CNCc1ccc(-c2[nH]c3cc(F)cc4c3c2CCNC4=O)cc1 + Nc1ccc(C#CCN(C(=O)Cc2ncc(C(F)(F)F)cc2C(F)(F)F)c2ccc(F)cc2)nn1 , thanks.
Result: 100

Query: Also need Cn1ncnc1[C@H]1c2n[nH]c(=O)c3cc(F)cc(c23)N[C@@H]1c1ccc(F)cc1 + COC1C(OC(N)=O)C(O)C(Oc2ccc3c(O)c(NC(=O)c4ccc(O)c(CC=C(C)C)c4)c(=O)oc3c2C)OC1(C)C , thanks.
Result: 83.3

Query: Also need CNCc1ccc(-c2[nH]c3cc(F)cc4c3c2CCNC4=O)cc1 + Cc1cccc(N(C)C(=O)C2C(O)CCN2c2nc(C)cc(C(F)(F)F)c2C#N)c1 , thanks.
Result: 102

Query: Also need COc1cccc2c1C(=O)c1c(O)c3c(c(O)c1C2=O)CC(O)(C(=O)CO)CC3OC1CC(N)C(O)C(C)O1 (stereo unspecified) + Nc1ccc(C#CCN(C(=O)Cc2ncc(C(F)(F)F)cc2C(F)(F)F)c2ccc(F)cc2)nn1 , thanks.
Result: 20.4

Query: Also need C=CCn1c(=O)c2cnc(Nc3ccc(N4CCN(C)CC4)cc3)nc2n1-c1cccc(C(C)(C)O)n1 + COC1C(OC(N)=O)C(O)C(Oc2ccc3c(O)c(NC(=O)c4ccc(O)c(CC=C(C)C)c4)c(=O)oc3c2C)OC1(C)C , thanks.
Result: 103

Query: Also need CCc1cc2c(N3CCc4c(cc(Cn5ccnc5)cc4-c4cn(C)nc4C(F)(F)F)C3=O)cc(C)nc2c(OC)n1 + Nc1ccc(C#CCN(C(=O)Cc2ncc(C(F)(F)F)cc2C(F)(F)F)c2ccc(F)cc2)nn1 , thanks.
Result: 91.1
